All figures here come from PubChem BioAssay AID1963973.

Test system: 883617-216-R-J1-PDC tumor spheroids, viability
METHOD_NOTES: Anticancer human tumor 883617-216-R-J1-PDC patient-derived bladder carcinoma cell line growth inhibition [PI3K]
ASSAY_CONDITIONS: curve of first compound; second compound 0.00316 µM; spheroids with HUVEC and MSC
EXPERIMENTAL_ENDPOINT: IC50 (µM)
Hi! Could you send only the number? It should be in µM, unit omitted.

INSERT INTO assay_data (compound, experimental_endpoint, meas_value) VALUES
  ('CCCS(=O)(=O)Nc1ccc(F)c(C(=O)c2c[nH]c3ncc(-c4ccc(Cl)cc4)cc23)c1F + CC(Nc1ccc2c(c1)OCCn1cc(N3C(=O)OCC3C(F)F)nc1-2)C(N)=O', 'IC50', 4.59);

Now, please, on to the next compound.
Please report the recorded IC50 for CCN1CCN(Cc2ccc(Nc3ncc(F)c(-c4cc(F)c5nc(C)n(C(C)C)c5c4)n3)nc2)CC1 + COc1c(OCCCN2CCOCC2)ccc2c3n(c(=NC(=O)c4cnc(N)nc4)nc12)CCN3 .
0.234

====

System: 883617-216-R-J1-PDC tumor spheroids, viability
METHOD_NOTES: Anticancer human tumor 883617-216-R-J1-PDC cell line growth inhibition [PI3K];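 also: spheroids exposed to agents for 7 days before the viability read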
ASSAY_CONDITIONS: second compound 0.316 µM; first compound 3.16 µM; stronger effect = lower value; spheroids with HUVEC and MSC
Measured viability, T/C values are reported for all entries that follow.
Hi! Could you send only the number? It should be in %, unit omitted.

INSERT INTO results (molecule, meas_value) VALUES
  ('CC1(C)CCC(Nc2ncc(C(F)(F)F)c(-c3c[nH]c4c(P(C)(C)=O)c(C#N)ccc34)n2)CN1 (stereo not drawn) + Cc1nc(NC(=O)N2CCCC2C(N)=O)sc1-c1ccnc(C(C)(C)C(F)(F)F)c1', 4.57),
  ('Cn1nccc1Nc1nccc(-c2ccn(C(CO)c3ccc(Cl)c(F)c3)c(=O)c2)n1 (stereo not drawn) + Cc1nc(NC(=O)N2CCCC2C(N)=O)sc1-c1ccnc(C(C)(C)C(F)(F)F)c1', 30.8);

Now, please, on to the next molecule.
Please report the recorded viability, T/C for CC1(C)CCC(CN2CCN(c3ccc(C(=O)NS(=O)(=O)c4ccc(NCC5CCOCC5)c([N+](=O)[O-])c4)c(Oc4cnc5[nH]ccc5c4)c3)CC2)=C(c2ccc(Cl)cc2)C1 + CC(Nc1ccc2c(c1)OCCn1cc(N3C(=O)OCC3C(F)F)nc1-2)C(N)=O .
26.4

====

Test system: 883617-216-R-J1-PDC tumor spheroids, viability
METHOD_NOTES: Anticancer human tumor 883617-216-R-J1-PDC cell line growth inhibition [PI3K]; active means viability on the fitted dose curve at most 10% of control; inactive means the rest;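 also: spheroids exposed to agents for 7 days before the viability read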
ASSAY_CONDITIONS: second compound 1 µM; first compound 0.0316 µM; spheroids with HUVEC and MSC
Select the matching outcome among active, inactive

Answered examples (3):
INSERT INTO results (compound, label_class) VALUES
  ('CC(C)NCC(C(=O)N1CCN(c2ncnc3c2C(C)CC3O)CC1)c1ccc(Cl)cc1 (stereo not given) + COc1c(OCCCN2CCOCC2)ccc2c3n(c(=NC(=O)c4cnc(N)nc4)nc12)CCN3', 'active'),
  ('CC(Cn1ccc(-c2ccc(C#N)c(Cl)c2)n1)NC(=O)c1cc(C(C)O)[nH]n1 (stereo not given) + CC(Nc1ncnc2nc[nH]c12)c1cc2cccc(Cl)c2c(=O)n1-c1ccccc1', 'inactive'),
  ('CCN1CCN(Cc2ccc(Nc3ncc(F)c(-c4cc(F)c5nc(C)n(C(C)C)c5c4)n3)nc2)CC1 + CC(Nc1ccc2c(c1)OCCn1cc(N3C(=O)OCC3C(F)F)nc1-2)C(N)=O', 'inactive');

Hi, sorry to bother you, what did the test record for CC1(C)CCC(CN2CCN(c3ccc(C(=O)NS(=O)(=O)c4ccc(NCC5CCOCC5)c([N+](=O)[O-])c4)c(Oc4cnc5[nH]ccc5c4)c3)CC2)=C(c2ccc(Cl)cc2)C1 + COc1c(OCCCN2CCOCC2)ccc2c3n(c(=NC(=O)c4cnc(N)nc4)nc12)CCN3 ?
active

Item: C[C@@H](NC(=O)c1ncnc(N)c1Cl)c1ncc(C(=O)Nc2cc(C(F)(F)F)c(Cl)cn2)s1 + CC(Nc1ccc2c(c1)OCCn1cc(N3C(=O)OCC3C(F)F)nc1-2)C(N)=O
inactive

====

Test system: 883617-216-R-J1-PDC tumor spheroids, viability
METHOD_NOTES: Anticancer human tumor 883617-216-R-J1-PDC cell line growth inhibition [PI3K];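 also: spheroids exposed to agents for 7 days before the viability read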
ASSAY_CONDITIONS: second compound 0.0316 µM; first compound 3 µM; stronger effect = lower value; spheroids with HUVEC and MSC
EXPERIMENTAL_ENDPOINT: viability, T/C (%)
Hi! Could you send only the number? It should be in %, unit omitted.

These recorded examples may help you get a feel for the data.
INSERT INTO results (molecule, meas_value) VALUES
  ('Cn1cnc2c(F)c(Nc3ccc(Br)cc3Cl)c(C(=O)NOCCO)cc21 + COc1c(OCCCN2CCOCC2)ccc2c3n(c(=NC(=O)c4cnc(N)nc4)nc12)CCN3', 7.94),
  ('Cn1cnc2c(F)c(Nc3ccc(Br)cc3Cl)c(C(=O)NOCCO)cc21 + CC(Nc1ncnc2nc[nH]c12)c1cc2cccc(Cl)c2c(=O)n1-c1ccccc1', 19.9),
  ('Cn1cnc2c(F)c(Nc3ccc(Br)cc3Cl)c(C(=O)NOCCO)cc21 + Cc1nc(NC(=O)N2CCCC2C(N)=O)sc1-c1ccnc(C(C)(C)C(F)(F)F)c1', 19.5);

Now, please, on to the next molecule.
Request body: readout viability, T/C, system 883617-216-R-J1-PDC tumor spheroids, viability, query Cn1cnc2c(F)c(Nc3ccc(Br)cc3Cl)c(C(=O)NOCCO)cc21 + CC(Nc1ccc2c(c1)OCCn1cc(N3C(=O)OCC3C(F)F)nc1-2)C(N)=O . Return the value.
14.2

====

Tested on: 883617-216-R-J1-PDC tumor spheroids, viability
METHOD_NOTES: Anticancer human tumor 883617-216-R-J1-PDC cell line growth inhibition [PI3K];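 also: spheroids exposed to agents for 7 days before the viability read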
ASSAY_CONDITIONS: second compound 0.316 µM; first compound 3.16 µM; stronger effect = lower value; spheroids with HUVEC and MSC
EXPERIMENTAL_ENDPOINT: viability, T/C (%)
Hi! Could you send only the number? It should be in %, unit omitted.

Please report the recorded viability, T/C for C=CC(=O)N1CCN(c2nc(=O)n(-c3c(C)ccnc3C(C)C)c3nc(-c4c(O)cccc4F)c(F)cc23)C(C)C1 (stereo not given) + COc1c(OCCCN2CCOCC2)ccc2c3n(c(=NC(=O)c4cnc(N)nc4)nc12)CCN3 .
2.85

Item: CC1(C)CCC(CN2CCN(c3ccc(C(=O)NS(=O)(=O)c4ccc(NCC5CCOCC5)c([N+](=O)[O-])c4)c(Oc4cnc5[nH]ccc5c4)c3)CC2)=C(c2ccc(Cl)cc2)C1 + CC(Nc1ncnc2nc[nH]c12)c1cc2cccc(Cl)c2c(=O)n1-c1ccccc1
76.6

Item: CC(Cn1ccc(-c2ccc(C#N)c(Cl)c2)n1)NC(=O)c1cc(C(C)O)[nH]n1 (stereo not given) + CC(Nc1ncnc2nc[nH]c12)c1cc2cccc(Cl)c2c(=O)n1-c1ccccc1
95.5

Item: C=CC(=O)N1CCN(c2nc(=O)n(-c3c(C)ccnc3C(C)C)c3nc(-c4c(O)cccc4F)c(F)cc23)C(C)C1 (stereo not given) + CC(Nc1ncnc2nc[nH]c12)c1cc2cccc(Cl)c2c(=O)n1-c1ccccc1
48.7

Item: CC(Cn1ccc(-c2ccc(C#N)c(Cl)c2)n1)NC(=O)c1cc(C(C)O)[nH]n1 (stereo not given) + Cc1nc(NC(=O)N2CCCC2C(N)=O)sc1-c1ccnc(C(C)(C)C(F)(F)F)c1
55

====

Test system: 883617-216-R-J1-PDC tumor spheroids, viability
METHOD_NOTES: Anticancer human tumor 883617-216-R-J1-PDC cell line growth inhibition [PI3K];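 also: spheroids exposed to agents for 7 days before the viability read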
ASSAY_CONDITIONS: curve of first compound; second compound 0.00316 µM; spheroids with HUVEC and MSC
EXPERIMENTAL_ENDPOINT: pIC50
Value format note: pIC50 is -log10 of concentration (mol/L); just state the number.

INSERT INTO results (molecule, experimental_endpoint, meas_value) VALUES
  ('CC(=O)c1c(C)c2cnc(Nc3ccc(N4CCNCC4)cn3)nc2n(C2CCCC2)c1=O + CC(Nc1ccc2c(c1)OCCn1cc(N3C(=O)OCC3C(F)F)nc1-2)C(N)=O', 'pIC50', 7.13);

Now, please, on to the next molecule.
Please report the recorded pIC50 for CC1(C)CCC(CN2CCN(c3ccc(C(=O)NS(=O)(=O)c4ccc(NCC5CCOCC5)c([N+](=O)[O-])c4)c(Oc4cnc5[nH]ccc5c4)c3)CC2)=C(c2ccc(Cl)cc2)C1 + CC(Nc1ccc2c(c1)OCCn1cc(N3C(=O)OCC3C(F)F)nc1-2)C(N)=O .
5.27
